# SUBJECT_OF_TEST: T1, GLP-1R (INS1e assay) (UniProt P32301 22-463, limits assumed)
# T1 sequence (looked up): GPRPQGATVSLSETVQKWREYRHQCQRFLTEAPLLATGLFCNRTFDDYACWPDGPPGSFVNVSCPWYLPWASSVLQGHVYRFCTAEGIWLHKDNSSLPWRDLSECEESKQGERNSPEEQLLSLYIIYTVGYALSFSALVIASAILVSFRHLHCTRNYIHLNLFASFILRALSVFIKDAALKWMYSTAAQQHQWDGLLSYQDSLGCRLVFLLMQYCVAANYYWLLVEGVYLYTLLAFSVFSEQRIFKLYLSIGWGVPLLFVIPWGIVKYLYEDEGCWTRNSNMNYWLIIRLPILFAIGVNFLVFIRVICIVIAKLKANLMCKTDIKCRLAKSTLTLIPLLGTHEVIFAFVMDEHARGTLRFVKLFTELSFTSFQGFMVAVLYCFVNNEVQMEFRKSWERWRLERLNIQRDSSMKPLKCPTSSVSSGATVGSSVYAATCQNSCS
# ASSAY_SUMMARY: cell-based or functional assay
Non-standard residues stand in square brackets, D forms with d. Groups on a side chain read outwards from the residue. Primed or numbered codes have the meaning given here. No end group written: not given here. *: point of attachment. Dodecylbenzoate = dodecylbenzoyl lipid group; Stearoyl = CCCCCCCCCCCCCCCCCC(=O)*; αMeF = C[C@](N)(Cc1ccccc1)C(=O)O; αMeK = C[C@](N)(CCCCN)C(=O)O; αMeS = C[C@](N)(CO)C(=O)O; PEG2′ = not defined here; Aib = CC(C)(N)C(=O)O; Ahx = NCCCCCC(=O)O
MEASURED_ENDPOINT: INS1e assay EC50 GLP-1 R n1 (nM)

A: H[Aib]EGS[αMeF]TSDV[αMeS]S[αMeF]LEGEAA[αMeK]E[αMeF]IA[αMeF]VVK([Ahx-Ahx-Ahx-Dodecylbenzoate])GG-NH2 [SEQ ID NO 178]
B: H[Aib]EGS[αMeF]TSDV[αMeS]S[αMeF]LEGEAAK([PEG2′-PEG2′-Stearoyl])E[αMeF]IA[αMeF]VV[αMeK]GG-NH2 [SEQ ID NO 153]
Short answer wanted: higher INS1e assay EC50 GLP-1 R n1, A or B ? Reply briefly: the label of your chosen item.
A
(A: 0.31 nM, B: 0.055 nM)
